# target_system: 11β-HSD1 (Homo sapiens, UniProt P28845)
# Sequence (P28845 whole entry): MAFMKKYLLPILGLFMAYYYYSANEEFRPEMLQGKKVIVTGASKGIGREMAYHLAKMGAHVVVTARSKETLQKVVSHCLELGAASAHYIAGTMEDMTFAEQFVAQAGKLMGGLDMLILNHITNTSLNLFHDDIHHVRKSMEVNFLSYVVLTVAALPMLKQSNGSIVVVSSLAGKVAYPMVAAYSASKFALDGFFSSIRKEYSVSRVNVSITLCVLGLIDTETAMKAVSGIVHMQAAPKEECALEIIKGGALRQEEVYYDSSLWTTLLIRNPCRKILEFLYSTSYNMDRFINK
# assay_comment: biochemical
# assay_context: read-out: Average % inhibition at 100 nM
I'd be grateful if you could share measured inhibition at 0.1 µM for these entries.
Answers are plain numbers, in %.

1. C[C@@H](c1ccc(-c2cnc(-n3ccnc3)nc2)cc1)N1CC[C@](CC(C)(C)O)(c2ccccc2)OC1=O [EXAMPLE 14] :: 93.4
2. C[C@@H](c1ccc(-c2ncc(C(=O)N(C)C)s2)cc1)N1CC[C@](CC(C)(C)O)(c2ccccc2)OC1=O [EXAMPLE 158] :: 95.7
3. C[C@@H](c1ccc(-c2ccc(OCC(C)(C)O)nc2)cc1)N1CC[C@](CC(C)(C)O)(c2ccccc2)OC1=O [EXAMPLE 198] :: 92.4
4. Cc1nc(-c2ccc([C@H](C)N3CC[C@](CC(C)(C)O)(c4ccccc4)OC3=O)cc2)ccc1C#N [EXAMPLE 1] :: 96.4
5. C[C@@H](c1ccc(-c2ccc(OCCF)nc2)cc1)N1CC[C@](CC(C)(C)O)(c2ccccc2)OC1=O [EXAMPLE 200] :: 98.3
6. Cc1cc(-c2ccc([C@H](C)N3CC[C@](CCCO)(c4ccc(F)cc4)OC3=O)cc2)cc(C)[n+]1[O-] [EXAMPLE 122] :: 94.5

The record that follows has no inhibition at 0.1 µM shown yet.
Field inhibition at 0.1 µM (entry Cc1cc(-c2ccc([C@H](C)N3CC[C@](CCCNS(C)(=O)=O)(c4ccccc4)OC3=O)cc2)ccn1 [EXAMPLE 99] ) reads 98.5
